Source: patent US6596863B2

Target: human MMP-9 (gelatinase B) (Homo sapiens)
Construct: endogenous in cells; host or cells: HT1080 human fibrosarcoma cells (ATCC CCL-121), PMA-stimulated; enzyme purified from the culture supernatant
Sequence (P14780 107-707 limits assumed): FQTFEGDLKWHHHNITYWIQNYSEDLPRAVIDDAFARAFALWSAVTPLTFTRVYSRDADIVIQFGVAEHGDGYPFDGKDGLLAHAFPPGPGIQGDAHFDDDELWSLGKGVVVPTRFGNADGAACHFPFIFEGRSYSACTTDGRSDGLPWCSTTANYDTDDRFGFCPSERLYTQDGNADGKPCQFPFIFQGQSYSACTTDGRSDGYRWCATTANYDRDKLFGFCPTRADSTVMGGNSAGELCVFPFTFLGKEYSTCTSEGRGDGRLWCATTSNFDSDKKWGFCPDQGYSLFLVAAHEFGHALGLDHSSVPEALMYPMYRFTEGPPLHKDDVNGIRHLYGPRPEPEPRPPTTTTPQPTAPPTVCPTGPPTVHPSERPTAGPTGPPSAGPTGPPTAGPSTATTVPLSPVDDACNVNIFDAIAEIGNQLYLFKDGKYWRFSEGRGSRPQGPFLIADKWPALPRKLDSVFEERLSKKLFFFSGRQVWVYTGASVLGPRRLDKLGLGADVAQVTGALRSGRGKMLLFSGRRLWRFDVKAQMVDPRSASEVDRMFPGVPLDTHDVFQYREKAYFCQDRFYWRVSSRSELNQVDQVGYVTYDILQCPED
Test: Inhibition activity against human MMP-9 (gelatinase B), fluorescent peptide substrate
Assay type: biochemical
Conditions: compounds of the formula (I); 1st measurement; read-out: MMP-9 inhibition activities IC50, 1st
Cut-off 30 µM on IC50: below means YES, at or above means NO.

recordSmiles: CNC(=C[N+](=O)[O-])NNS(C)(=O)=O
targetOfAssay: human MMP-9 (gelatinase B) (Homo sapiens)
classification: YES
--
recordSmiles: CNC(=C[N+](=O)[O-])NN=C(C)c1cccs1
targetOfAssay: human MMP-9 (gelatinase B) (Homo sapiens)
classification: YES
--
recordSmiles: CNC(=C[N+](=O)[O-])NN
targetOfAssay: human MMP-9 (gelatinase B) (Homo sapiens)
classification: NO
--
recordSmiles: CCOc1cc(C(F)(F)F)cc(NNC(=C[N+](=O)[O-])NC)n1
targetOfAssay: human MMP-9 (gelatinase B) (Homo sapiens)
classification: YES
--
recordSmiles: CNC(=C[N+](=O)[O-])NNc1ccccc1C
targetOfAssay: human MMP-9 (gelatinase B) (Homo sapiens)
classification: NO

query: Just wondering, is IC50 of COc1cccc(NC(=C[N+](=O)[O-])NN)c1 below 30 µM?
result: YES

query: Just wondering, is IC50 of CNC(=C[N+](=O)[O-])NNc1cc(C(F)(F)F)nc(C(F)(F)F)c1 below 30 µM?
result: YES

query: Just wondering, is IC50 of CNC(=C[N+](=O)[O-])NNc1ccccc1[N+](=O)[O-] below 30 µM?
result: NO

query: Just wondering, is IC50 of CNC(=C[N+](=O)[O-])NNc1c([N+](=O)[O-])c(C)nn1C below 30 µM?
result: YES
